# maps each entry to its IC50
Target: LK35.2-hPD-L1 cells / PE-labeled PD-1-Ig (Homo sapiens, UniProt Q9NZQ7)
Construct: expressed in transfected cells; host or cells: LK35.2 mouse B cell line
Sequence (Q9NZQ7 19-290): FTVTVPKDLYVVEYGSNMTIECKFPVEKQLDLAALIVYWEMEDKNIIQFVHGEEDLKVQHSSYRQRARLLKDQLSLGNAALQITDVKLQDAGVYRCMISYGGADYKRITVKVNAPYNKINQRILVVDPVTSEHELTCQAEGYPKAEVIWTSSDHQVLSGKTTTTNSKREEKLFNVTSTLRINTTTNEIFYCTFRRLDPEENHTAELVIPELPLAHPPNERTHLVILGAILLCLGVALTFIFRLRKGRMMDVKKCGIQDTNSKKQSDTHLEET
Test: LK35.2-hPD-L1 cell binding high-content screening assay
Format: cell-based
Conditions: cell binding assay, cell line not given; cluster symbol; read-out: CBA IC50 cluster
Description: LK35.2-hPD-L1 Cell Binding High-Content Screening Assay. Phycoerythrin (PE) was covalently linked to the Ig epitope tag of human PD-1-Ig and fluorescently-labeled PD-1-Ig was used for binding studies with a mouse B cell line (LK35.2) stably over-expressing human PD-L1 (LK35.2-hPD-L1). Briefly, 3×10^3 LK35.2-hPD-L1 cells were seeded into 384 well plates in 20 ul of RPMI supplemented with 10% fetal calf serum and cultured overnight. […]
Positions of bridges follow the written chain, without caps; N, C: chain ends. Non-standard residues stand in square brackets, D forms with d. Residues, ends and D or L forms follow the SMILES beside them. ξ: configuration not given here. NMeNle = CCCC[C@H](NC)C(=O)O; hSer = N[C@@H](CCO)C(=O)O; NMeA = CN[C@@H](C)C(=O)O; ξC = NC(CS)C(=O)O; Sar = CNCC(=O)O

Some compounds with recorded IC50:
The measured IC50 associated with CCCC[C@H]1C(=O)N(C)[C@@H](CCCC)C(=O)N[C@@H](CCCNC(=N)N)C(=O)NC(C(=O)NCC(N)=O)CSCC(=O)N[C@@H](Cc2ccc(O)cc2)C(=O)N(C)[C@@H](C)C(=O)N[C@@H](CC(N)=O)C(=O)N2CCC[C@H]2C(=O)N[C@@H](Cc2cnc[nH]2)C(=O)N[C@@H](CC(C)C)C(=O)N2CCC[C@H]2C(=O)N[C@@H](Cc2c[nH]c3ccccc23)C(=O)N[C@@H](CCO)C(=O)N[C@@H](Cc2c[nH]c3ccccc23)C(=O)N1C (stereo partly shown) [Example 9047] ({CH2CO}-Y[NMeA]NPHLPW[hSer]W[NMeNle][NMeNle]R[ξC]G-NH2; thioether N-14) reads 0.158 to 4.71 nM

Entry CCCC[C@H]1C(=O)N(C)[C@@H](CCCC)C(=O)N[C@@H](Cc2ccncc2)C(=O)N[C@H](C(=O)NCC(N)=O)CSCC(=O)N[C@@H](Cc2ccc(O)cc2)C(=O)N(C)[C@@H](C)C(=O)N[C@@H](CC(N)=O)C(=O)N2CCC[C@H]2C(=O)N[C@@H](Cc2cnc[nH]2)C(=O)N[C@@H](CC(C)C)C(=O)N2C[C@H](O)C[C@H]2C(=O)N[C@@H](Cc2c[nH]c3ccccc23)C(=O)N[C@@H](CO)C(=O)N[C@@H](Cc2c[nH]c3ccccc23)C(=O)N1C [Example 7031] — recorded IC50 = 4.78 to 72.9 nM

IC50 reported for this compound CCCC[C@H]1C(=O)N(C)[C@@H](CCOC)C(=O)N[C@@H](CCCNC(=N)N)C(=O)NC(C(=O)NCC(N)=O)CSCC(=O)N[C@@H](Cc2ccc(O)cc2)C(=O)N(C)[C@@H](C)C(=O)N[C@@H](CC(N)=O)C(=O)N2CCC[C@H]2C(=O)N[C@@H](Cc2cnc[nH]2)C(=O)N[C@@H](CC(C)C)C(=O)N2C[C@H](O)C[C@@H]2C(=O)N[C@@H](Cc2c[nH]c3ccccc23)C(=O)N[C@@H](CO)C(=O)N[C@@H](Cc2c[nH]c3ccccc23)C(=O)N1C (stereo partly shown) [Example 9003] : 0.158 to 4.71 nM

More entries:
Looking up CCCC[C@H]1C(=O)N(C)[C@@H](CCCC)C(=O)N[C@@H](Cc2cnc[nH]2)C(=O)N[C@H](C(=O)NCC(N)=O)CSCC(=O)N[C@@H](Cc2ccccc2)C(=O)N(C)[C@@H](C)C(=O)N[C@@H](CC(N)=O)C(=O)N2CCC[C@H]2C(=O)N[C@@H](Cc2cnc[nH]2)C(=O)N[C@@H](CC(C)C)C(=O)N(C)CC(=O)N[C@@H](Cc2c[nH]c3ccccc23)C(=O)N[C@@H](CO)C(=O)N[C@@H](Cc2c[nH]c3ccccc23)C(=O)N1C [Example 5013] ({CH2CO}-F[NMeA]NPHL[Sar]WSW[NMeNle][NMeNle]HCG-NH2; thioether N-14) , I see its IC50 listed as > 74.3 nM
